A collection of binders and their measured pKd
# target.system: T1, anthrax protective antigen, wild type PA83 (Bacillus anthracis, UniProt P13423 30-764)
# T1 construct: mature
# T1 sequence (P13423 30-764): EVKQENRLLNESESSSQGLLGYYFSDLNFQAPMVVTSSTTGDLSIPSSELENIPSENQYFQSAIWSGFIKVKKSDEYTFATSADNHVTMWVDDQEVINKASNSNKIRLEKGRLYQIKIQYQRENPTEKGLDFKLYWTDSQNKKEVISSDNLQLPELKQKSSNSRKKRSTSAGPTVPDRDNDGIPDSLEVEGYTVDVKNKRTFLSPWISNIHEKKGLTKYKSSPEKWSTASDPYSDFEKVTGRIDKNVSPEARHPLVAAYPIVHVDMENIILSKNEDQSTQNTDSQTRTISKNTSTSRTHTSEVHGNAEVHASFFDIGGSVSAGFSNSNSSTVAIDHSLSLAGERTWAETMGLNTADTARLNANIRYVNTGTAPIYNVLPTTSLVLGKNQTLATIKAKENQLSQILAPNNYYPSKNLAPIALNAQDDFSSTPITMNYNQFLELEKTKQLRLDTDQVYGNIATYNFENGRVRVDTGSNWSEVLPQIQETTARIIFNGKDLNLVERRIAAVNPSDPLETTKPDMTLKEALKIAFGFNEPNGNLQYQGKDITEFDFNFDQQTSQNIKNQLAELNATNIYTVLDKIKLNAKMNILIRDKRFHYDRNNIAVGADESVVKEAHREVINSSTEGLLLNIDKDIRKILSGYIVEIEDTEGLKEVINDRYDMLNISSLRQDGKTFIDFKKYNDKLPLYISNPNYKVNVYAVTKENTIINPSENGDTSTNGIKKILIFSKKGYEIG
# method.summary: SPR (Biacore 3000)
Would you please state pKd, meaning minus log10 of the concentration in mol/L, as a bare number?

Please report pKd for the following binder: JKH-A4 (VHH) VHH: QVQLAETGGGLVQAGGSLRLSCSASGLTFGNYAMGWFRQAPGKEREFVASISRSGSNTWYAEPLKGRFAISRDNDKNALYLQMNSLKPEDTAVYYCAGGSYNSDWWNYMYWGQGTQVTVSS
8.05
